Tested Target: M1 muscarinic receptor (Homo sapiens)
Construct: expressed in transfected cells; host or cells: CHO (M1-CHO)
Sequence (P11229 whole entry): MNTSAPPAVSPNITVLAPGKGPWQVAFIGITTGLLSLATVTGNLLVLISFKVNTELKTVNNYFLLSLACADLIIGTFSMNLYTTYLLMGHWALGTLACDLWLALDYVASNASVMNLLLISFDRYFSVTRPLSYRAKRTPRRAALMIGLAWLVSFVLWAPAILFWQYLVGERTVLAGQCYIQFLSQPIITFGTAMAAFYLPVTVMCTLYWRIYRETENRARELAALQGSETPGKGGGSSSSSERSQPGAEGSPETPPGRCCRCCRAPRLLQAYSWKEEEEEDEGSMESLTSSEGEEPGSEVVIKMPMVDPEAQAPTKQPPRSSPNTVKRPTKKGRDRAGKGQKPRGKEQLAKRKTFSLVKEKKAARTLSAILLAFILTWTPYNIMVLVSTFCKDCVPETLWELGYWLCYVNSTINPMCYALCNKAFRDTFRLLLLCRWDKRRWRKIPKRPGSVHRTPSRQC
Method Description: Functional mobilization of intracellular calcium (FLIPR), M1-CHO cells
Format: cell-based
Details: 100% efficacy is the maximum response obtained using Carbachol as a control
Counter-ions that a name gives are not always drawn.
Outcome Measure: Emax

{"Compound": "O=C1NC2(CCN(CC3CC4C=CC3C4)CC2)c2ccccc21 (centres unmarked) [compound 267]", "Emax": "25 to 100%"}
{"Compound": "CCOC(=O)N1CCC(N2CCC3(CC2)CN(S(=O)(=O)c2c(C)noc2C)Cc2ccccc23)CC1 [compound 25]", "Emax": "25 to 100%"}
{"Compound": "COc1ccccc1CN1CCC2(CC1)CN(C(C)=O)Cc1ccccc12 [compound 150]", "Emax": "< 25%"}
{"Compound": "CCOC(=O)N1CCC(C)(CN2CCC3(CC2)CN(C(C)=O)Cc2ccccc23)CC1 [compound 103, hydrochloride]", "Emax": "25 to 100%"}

Could you now consider this next compound?
## Input Item CC(=O)N1Cc2ccccc2C2(CCN(C3CCN(C(=O)OC4CCC4)CC3)CC2)C1 [compound 258] has what recorded Emax?
## Output 25 to 100%

Ref: patent US7863449B2
